# SYSTEM: ATP-dependent translocase ABCB1 (Homo sapiens)
# Sequence (P08183 whole entry): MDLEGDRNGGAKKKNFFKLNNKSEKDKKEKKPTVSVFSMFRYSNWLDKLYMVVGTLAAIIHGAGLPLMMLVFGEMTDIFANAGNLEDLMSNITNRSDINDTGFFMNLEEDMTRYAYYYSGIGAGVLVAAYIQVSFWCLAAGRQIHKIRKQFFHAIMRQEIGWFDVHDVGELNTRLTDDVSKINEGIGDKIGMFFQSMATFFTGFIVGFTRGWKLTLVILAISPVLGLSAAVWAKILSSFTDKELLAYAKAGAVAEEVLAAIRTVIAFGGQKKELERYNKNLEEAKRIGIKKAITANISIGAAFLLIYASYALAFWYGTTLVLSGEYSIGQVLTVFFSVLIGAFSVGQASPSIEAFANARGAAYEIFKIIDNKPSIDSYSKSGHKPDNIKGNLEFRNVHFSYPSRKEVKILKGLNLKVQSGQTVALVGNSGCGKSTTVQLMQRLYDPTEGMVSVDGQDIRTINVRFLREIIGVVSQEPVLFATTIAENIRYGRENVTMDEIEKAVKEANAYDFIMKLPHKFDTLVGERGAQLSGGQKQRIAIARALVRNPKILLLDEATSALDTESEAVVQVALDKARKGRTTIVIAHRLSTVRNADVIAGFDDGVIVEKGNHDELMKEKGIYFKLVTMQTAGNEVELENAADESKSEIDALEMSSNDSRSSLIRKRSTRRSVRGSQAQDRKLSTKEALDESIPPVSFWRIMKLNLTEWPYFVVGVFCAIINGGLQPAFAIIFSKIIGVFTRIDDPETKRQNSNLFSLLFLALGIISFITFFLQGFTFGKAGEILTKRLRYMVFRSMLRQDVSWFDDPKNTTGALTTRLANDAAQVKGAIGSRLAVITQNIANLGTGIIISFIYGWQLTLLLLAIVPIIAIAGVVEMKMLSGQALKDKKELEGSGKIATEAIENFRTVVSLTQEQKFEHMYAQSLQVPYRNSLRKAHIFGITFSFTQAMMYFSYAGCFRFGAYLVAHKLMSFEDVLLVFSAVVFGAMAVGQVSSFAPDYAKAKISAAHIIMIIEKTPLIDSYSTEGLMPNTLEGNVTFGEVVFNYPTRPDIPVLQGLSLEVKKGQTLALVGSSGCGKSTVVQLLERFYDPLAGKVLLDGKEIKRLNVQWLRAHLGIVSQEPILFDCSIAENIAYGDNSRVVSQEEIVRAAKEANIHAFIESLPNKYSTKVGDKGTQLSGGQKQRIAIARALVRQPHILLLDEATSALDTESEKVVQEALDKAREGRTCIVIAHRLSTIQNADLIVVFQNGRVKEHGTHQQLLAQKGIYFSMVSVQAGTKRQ
# ASSAY PROCEDURE: Inhibition of ABCB1 in human A2780/ADR cells at 5 to 10 uM preincubated for 30 mins followed by calcein AM addition and measured every 60 secs for 1 hr by fluorescence assay
# Type: cell-based

COMPOUND STRUCTURE: O=C(/C=C/c1ccccc1C(F)(F)F)c1ccc(O)cc1
inhibition (INH): Not Active
//
COMPOUND STRUCTURE: COc1cc(C(=O)/C=C/c2cc(OC)c(OC)c(OC)c2)ccc1O
inhibition (INH): Not Active
//
COMPOUND STRUCTURE: CCOc1ccc(/C=C/C(=O)c2ccc(O)cc2)cc1
inhibition (INH): Not Active
//
COMPOUND STRUCTURE: O=C(/C=C/c1ccc(OCc2ccc(Cl)cc2)cc1)c1ccc(O)cc1
inhibition (INH): Not Active
//
COMPOUND STRUCTURE: O=C(/C=C/c1cccs1)c1ccccc1O
inhibition (INH): Not Active
//
COMPOUND STRUCTURE: O=C(/C=C/c1cccs1)c1ccc(O)cc1
inhibition (INH): Not Active

----------
Reported selectivity ratio by item:
# Test system: ABCG2 (BCRP)
# ASSAY PROCEDURE: Therapeutic index, ratio of GI50 for MDCK2 cells expressing BCRP (unknown origin) to EC50 for ABCG2 (unknown origin) co-expressed in MDCK2 cells expressing BCRP (unknown origin)
# Format: toxicity, cell-based
# REPORTED CONDITIONS: dog
ATTRIBUTE MEASURED: selectivity ratio

COMPOUND STRUCTURE: CCCOc1ccc(/C=C/C(=O)c2ccc(O)cc2)cc1
ATTRIBUTE MEASURED: selectivity ratio
COMPARATIVE SIGN: =
EXPERIMENTAL RESULT: 6
--
COMPOUND STRUCTURE: O=C(COc1c(-c2ccccc2Cl)oc2ccccc2c1=O)Nc1ccc2c(c1)COC2=O
ATTRIBUTE MEASURED: selectivity ratio
COMPARATIVE SIGN: =
EXPERIMENTAL RESULT: 19.4
--
COMPOUND STRUCTURE: COc1ccc(NC(=O)COc2ccc(C(=O)/C=C/c3c(F)cccc3F)cc2)cc1OC
ATTRIBUTE MEASURED: selectivity ratio
COMPARATIVE SIGN: =
EXPERIMENTAL RESULT: 6
--
COMPOUND STRUCTURE: COc1ccc(-c2c(OCC(=O)Nc3cccc4ccccc34)oc3ccccc3c2=O)cc1OC
ATTRIBUTE MEASURED: selectivity ratio
COMPARATIVE SIGN: >
EXPERIMENTAL RESULT: 26.7
--
COMPOUND STRUCTURE: COc1cc(C(=O)/C=C/c2cc(OC)c(OC)c(OC)c2)ccc1O
ATTRIBUTE MEASURED: selectivity ratio
COMPARATIVE SIGN: =
EXPERIMENTAL RESULT: 4.8
--
COMPOUND STRUCTURE: O=C(COc1cccc(C(=O)/C=C/c2ccccc2)c1)Nc1ccc2c(c1)COC2=O
ATTRIBUTE MEASURED: selectivity ratio
COMPARATIVE SIGN: =
EXPERIMENTAL RESULT: 2.7
--
COMPOUND STRUCTURE: COc1cc(/C=C/C(=O)c2ccc(OCC(=O)NCc3ccc4c(c3)OCO4)cc2)cc(OC)c1OC
ATTRIBUTE MEASURED: selectivity ratio
COMPARATIVE SIGN: =
EXPERIMENTAL RESULT: 9.2
--
COMPOUND STRUCTURE: COc1cccc(/C=C/C(=O)c2ccc(OCC(=O)Nc3ccc(OC)c(OC)c3)cc2)c1
ATTRIBUTE MEASURED: selectivity ratio
COMPARATIVE SIGN: =
EXPERIMENTAL RESULT: 10.3
--
COMPOUND STRUCTURE: COc1ccc(-c2c(OCC(=O)Nc3cccc4ccccc34)oc3ccccc3c2=O)cc1
ATTRIBUTE MEASURED: selectivity ratio
COMPARATIVE SIGN: >
EXPERIMENTAL RESULT: 19.6
--
COMPOUND STRUCTURE: COc1ccc(NC(=O)COc2ccc(C(=O)/C=C/c3cc(OC)c(OC)c(OC)c3)cc2)cc1OC
ATTRIBUTE MEASURED: selectivity ratio
COMPARATIVE SIGN: =
EXPERIMENTAL RESULT: 8.2
